Below: a set of entries, each annotated with reported melting point.
Measure: melting point (°C)

Compound	Unit Of Measure	Readout Value
CC1(O)Cc2ccccc21 (configuration not stated)	°C	78
COc1cc(F)ccc1C#N	°C	76
COc1ccc(CNC(=O)c2ccccc2)cc1OCc1ccccc1	°C	143
O=C(CCC(O)c1ccccc1)c1ccccc1 (configuration not stated)	°C	95
CCOC(=O)c1c(C)cc(O)cc1O	°C	132
Cc1c(Cl)cc(-c2ccc(=O)[nH]n2)cc1Cl	°C	252
CCN1CCc2c3n(c4ccccc24)C(C(=O)OC)=CCC31 (configuration not stated)	°C	120
CC(C)CC(C)O (configuration not stated)	°C	-90
Cc1ncc(CO)c(C(=O)O)c1O	°C	248
CC1=C2C3OC(=O)C(C)C3CCC2(C)C=CC1=O (configuration not stated)	°C	175
O=c1c2ccccc2cc2ccccn12	°C	166
C#CC1(O)CCC2C3CCC4=CC(=O)CCC4(C)C3CCC21C (configuration not stated)	°C	269
CCCCNC(=O)c1ccc2cc(O)c(O)cc2c1	°C	194
c1ccc2c(c1)cc1ccc3cc4ccccc4c4ccc2c1c34	°C	282
CCCCCCCCC=CCCCCCCCC(=O)O	°C	45
CCCN(CCC)c1c([N+](=O)[O-])cc(S(N)(=O)=O)cc1[N+](=O)[O-]	°C	141
CCCCNC(=O)NNC(=O)OCC	°C	97
Brc1cc2c(cc1Br)Oc1cc(Br)c(Br)cc1O2	°C	334
CC12CCC(=O)C=C1CCC1C2C(O)CC2(C)C(C(=O)CO)CCC12 (configuration not stated)	°C	181
CN(C)CCCN1c2ccccc2Sc2ccccc21	°C	33
Fc1c(CBr)cccc1C(F)(F)F	°C	48
N#CC(=Cc1ccc(Cl)cc1)C(N)=O	°C	100
O=C(Cl)OCC1=Cc2ccccc2S1(=O)=O	°C	77
CCN(CC)C(=O)CSc1ccc(Cl)nn1	°C	98
CC1(C)N=C(N)N=C(N)N1c1ccc(Cl)cc1	°C	146
COc1cc(C=CC(=O)O)cc(OC)c1OC	°C	127
CCOC(=O)C(C#N)c1ccccc1[N+](=O)[O-] (configuration not stated)	°C	60
O=C1CCSc2ccccc21	°C	29
CC(=O)c1ccccc1C(C)=O	°C	40
CN1CCN(c2ccc(N)cc2)CC1	°C	92
S=C(c1ccc2c(c1)OCO2)N1CCOCC1	°C	154
Cc1cc(=O)oc2cc(OC3OCC(O)C(O)C3O)ccc12 (configuration not stated)	°C	223
O=C(O)c1cc(=O)c2ccccc2o1	°C	260
CC(=O)C(=NNc1ccc(C(=O)O)cc1)C(C)=O	°C	215
CCN(CC(=O)O)C(=O)OC(C)(C)C	°C	88

###

Below: a set of entries, each annotated with reported melting point.

Compound	Unit Of Measure	melting point
CC(=O)/N=c1\sc(C(C)=O)nn1-c1ccc(F)cc1	°C	157
O=C(NCN1CCOCC1)c1cnccn1	°C	118
CC1=CC(=O)OC2(C1)CC1CCC2CN1C (stereo not drawn)	°C	54.5
C=CN1CCCCCC1=O	°C	34
Nc1c(F)c(F)c(F)c(F)c1F	°C	35.5
O=[N+]([O-])c1ccc(I)c(Cl)c1	°C	99
COC(OC)(OC)OC	°C	-5
CCN1CCCC1CNC(=O)c1cc(S(=O)(=O)CC)c(N)cc1OC (stereo not drawn)	°C	126
CC(=O)c1ccc(NC(=O)c2ccccc2)c(C(=O)c2ccccc2)c1	°C	177

###

Below: a set of entries, each annotated with reported melting point.
Measure: melting point

Compound	Measure	Readout Value
O=C(C=Cc1ccc([N+](=O)[O-])cc1)c1ccccc1	melting point	164 °C
Oc1ccccc1/C=C/c1ccccc1	melting point	147 °C
CC(C)N(C(=O)COc1nnc(C(F)(F)F)s1)c1ccc(F)cc1	melting point	78 °C
CN1CCN(Cc2ccc(CO)cc2)CC1	melting point	96 to 98 °C
COc1ccc(Cl)cc1C(=O)O	melting point	99 °C
CC(C)(C)NCC(O)COc1cc(Cl)ccc1Cl (configuration not stated)	melting point	82 °C
COc1cc2nc(N3CCN(C(=O)c4ccco4)CC3)nc(N)c2cc1OC	melting point	285 °C
O=C(O)c1ccnnc1	melting point	237 to 240 °C
COc1ccc(N/N=C2\C(=O)N(CO)N=C2C(F)(F)F)cc1	melting point	142 °C
O=C1c2ccccc2C(=O)N1CCOCCCl	melting point	72 to 73 °C
Cc1[nH]c(=O)n(C(C)(C)C)c(=O)c1Cl	melting point	176 °C
CC(C)(C)c1cc(C(=O)NN)n(Cc2ccc(F)cc2)n1	melting point	183 to 185 °C

###

# label = met if melting point < 200 °C else not met

Compound	Class Label
c1cc(SSc2ccncc2)ccn1	met
N#C/C(=N\Nc1cccc(O)c1)c1nc2ccccc2[nH]1	not met
CCOC(=O)C1(S(=O)(=O)c2ccc(C)cc2)CCC1	met
CCOC(=O)c1nc(C(Cl)(Cl)Cl)n(-c2ccc(Cl)cc2Cl)n1	met
COc1ccccc1-c1nnc2n1NC(c1ccccc1)S2 (stereo unspecified)	not met
O=C(O)c1cccc2c1Cc1ccccc1-2	not met
O=C(NC(Cc1ccc2ccccc2c1)C(=O)O)OCC1c2ccccc2-c2ccccc21 (stereo unspecified)	met
N#CCc1cc(C(F)(F)F)ccc1Cl	met
CCCCOC(=O)C1=C(C)NC(=O)NC1c1ccco1 (stereo unspecified)	met
CCCCCCCCC(=O)NCc1ccc(O)c(OC)c1	met
N#Cc1cnc2[nH]ccc2c1	not met
CC(C)=CCCC(C)=CCO	met
OC1Cc2cccc(F)c21 (stereo unspecified)	met
Cc1n[nH]c(C)c1/C=C/c1ccccc1	met
CCCC(O)C(O)CO (stereo unspecified)	met
O=C1c2ncccc2-c2cccnc21	not met
Cc1csc2ccc(Cl)cc12	met
CC1=C(C(=O)OC(C)C)C(c2ccccc2)NC(=S)N1 (stereo unspecified)	met
CC(=O)Nc1ccc(/C=C/c2ccc([N+](=O)[O-])cc2)c([N+](=O)[O-])c1	not met
ClC=CBr	met
COC1CC2C3(C)CCCC2(COC3=O)C2C(OC(C)=O)CC3C(C)C(=O)C12C3O (stereo unspecified)	met
CC1(C)C(=O)N(Br)C(=O)N1Cl	met
Cc1cccc(C(=O)Cl)c1C	met
O=Nc1c(-c2cccs2)nc2ncccn12	not met
O=S(=O)(Cl)c1ccc(F)cc1C(F)(F)F	met
CC(C)CCNCCC(C)C	met
COc1ccc(C(N)=O)cc1[N+](=O)[O-]	met
CC(=O)C1CCC2(C)C(CCC3C4CCC(O)C4(C)CCC32)C1 (stereo unspecified)	met
Cc1ccc(-c2ccccc2)cc1C	met
NS(=O)(=O)c1ccc(S(=O)(=O)CCCO)c(F)c1	met
O=[N+]([O-])c1ccc(O)c([N+](=O)[O-])c1	met
Cc1c2ccccc2nc2ccccc12	met

###

# label = satisfied if melting point < 100 °C else not satisfied

Compound	Class Label
Cc1nc2n(c(=O)c1CCN1CCC(c3noc4cc(F)ccc34)CC1)CCCC2	not satisfied
CCOC(=O)Nc1ccc2nn(C3CCCC3)nc2c1	not satisfied
COC(=O)C1(S(=O)(=O)c2ccccc2)CCCC1	satisfied
Nc1ccc(Oc2ccc(N)cc2)cc1	not satisfied
ON=Cc1ccc[nH]1	not satisfied
O=C1C=CC2(CCC23C=CC(=O)O3)O1 (stereo not drawn)	not satisfied
Cc1cc2ccccc2oc1=O	satisfied
Cc1cc(OCc2ccccc2)ccc1[N+](=O)[O-]	satisfied
CC(=O)Nc1ccc(N)cn1	not satisfied
O=C(O)CCCCCCCc1ccccc1	satisfied
CN(C)CCCNc1c2ccccc2nc2cccc([N+](=O)[O-])c12	not satisfied
N#Cc1cccc(I)c1	satisfied
C/C=C(C)/C=C/C=C(C)C	satisfied
O=c1c(O)c(-c2ccc(O)c(O)c2)oc2cc(O)ccc12	not satisfied
Nc1ccc(C=Cc2nc3ccccc3[nH]2)cc1	not satisfied
CC12CCC3C(=CCc4cc(O)ccc43)C1CCC2=O (stereo not drawn)	not satisfied
O=CC[C@@H](O)[C@H](O)CO	satisfied
C#CCCCCN1C(=O)c2ccccc2C1=O	satisfied
CC(C)OC(=O)CCCCC(=O)OC(C)C	satisfied
CCc1oc2ccccc2c1C(=O)c1ccc(O)cc1	not satisfied

###

Measure: melting point (°C)

Compound	Readout Value
Cc1cc2c(c(C)c1C)CC2	38
Cc1cc2c(C)ccc(C)c2cc1C	64
O=[N+]([O-])C1CCCCC1	-34
C#Cc1cccnc1	40
CC(=O)OC[C@@H](OC(C)=O)[C@H](OC(C)=O)[C@H](OC(C)=O)[C@@H](OC(C)=O)c1nnn[nH]1	109
C=Cc1ccccc1CC	-75.5
COC(=O)C1(S(=O)(=O)c2ccccc2)CC1	74.5
CC(=O)Nc1ccccc1-c1onc(-c2ccccc2)c1-c1ccccc1	190
CC(=O)NCCc1ccccc1NC(C)=O	144
Cc1ccc(-c2ccc(C=C3C(=O)NC(=O)NC3=O)o2)cc1	265
O=c1c2ccccc2cc2ccc3ccccc3n12	125
O=C1/C(=C/c2ccccc2O)SC(=S)N1CN1CCCCC1	166
O=C1CCCCO1	-13
O=C(OCc1ccccc1)N1CCC(CBr)CC1	68
FC(F)(F)C1(F)C(F)(F)C(F)(F)C(F)(F)C2(F)C(F)(F)C(F)(F)C(F)(F)C(F)(F)C12F (stereo not drawn)	-70
Nc1ccc(C(c2ccccc2)(c2ccccc2)c2ccccc2)cc1	258
CCOCC1C(=O)C2(C)CCC1C2(C)C (stereo not drawn)	114
OCC1(O)OCC(O)C(O)C1O (stereo not drawn)	119
O=C(CI)c1ccccc1	34.4
CCC(C)c1ccc(O)cc1 (stereo not drawn)	61.5
C=Cc1ccccc1	-31
COc1cc(N)c2c(c1N)C(=O)c1ccccc1C2=O	242
COc1ccc(C(O)C(O)c2ccccc2)cc1 (stereo not drawn)	129
CSc1c(C#N)c(N)nc2c(/N=N/c3ccc(F)cc3)c(N)nn12	228
O=C(Cl)c1cnc2ccccc2n1	100
O=S(=O)(O)c1ccc(O)c2ncccc12	322
CC(=O)Nc1ccc(S(=O)(=O)Cl)cc1	149
NC(=O)c1cc(F)cc(F)c1	156
N=CN	81
O=C(O)C=CC(=O)Nc1ccc(Cl)cc1Cl	178
CC1CCCC(O)C1 (stereo not drawn)	-5.5
CCC(C)=NNc1ccc([N+](=O)[O-])cc1[N+](=O)[O-]	117
CCOC(=O)C(C#N)=C1SCCS1	106
Cc1cc(N=Nc2ccc(N)cc2)c(C(C)C)cc1N=Nc1ccc(N)cc1	177
